FYI, the data here is from patent US11253519B2.

assay: Vitamin B1 level in whole blood, serum pyridoxamine and pyridoxal levels and Wernicke's encephalopathy in two test subjects on pyridoxamine medication; format: in vivo, human; conditions: human, serum, oral; subject ID No. 3; 4 weeks after start of administration
parameterMeasured: concentration at 4 weeks (ng/mL)
Give bare numbers, in ng/mL.

Record summary for Cc1ncc(CO)c(CN)c1O.Cl.Cl [pyridoxamine dihydrochloride] : reported concentration at 4 weeks = 1540

###

test: Vitamin B1 level in whole blood, serum pyridoxamine and pyridoxal levels and Wernicke's encephalopathy in two test subjects on pyridoxamine medication; assay type: in vivo, human; details: human, serum, oral; subject ID No. 3; 12 weeks after start, with fursultiamine 75 mg/day
parameterMeasured: concentration at 12 weeks (ng/mL)
Numbers only, in ng/mL.

Record summary for Cc1ncc(CO)c(CN)c1O.Cl.Cl [pyridoxamine dihydrochloride] : reported concentration at 12 weeks = 23.2
